tested on: A2058 (human melanoma); assay: MTS cytotoxicity assay (CellTiter 96 AQueous One), compounds, 72 h; assay type: cell-based; details: A2058 cells
*1 amine or outer side, *2 acyl side, *3 side chain or, on linkers, in order; H or OH if unused. Where a SMILES comes first, the peptide text is derived from it. [ ]: non-standard residue; d: D form. ξ: configuration not given here. Pentanoyl(2-O,4-OH,5-Cl) = O=C(O)C(O)CC(O)CCl; NMeI = CC[CH](C)[CH](NC)C(=O)O; X1 = CC1CCN([*:1])C1C(=O)[*:2]; ξLac(3-iPr) = CC(C)CC(O)C(=O)O; NMeA = CN[CH](C)C(=O)O; βAla = NCCC(=O)O
OBSERVATION_TYPE: IC50 (µM)
Answers are plain numbers, in µM.

Need IC50 for each of these molecules.
1. CCC(C)C1NC(=O)C2C(C)CCN2C(=O)C(CC(C)C)OC(=O)CCNC(=O)C(C)N(C)C(=O)C(C(C)CC)N(C)C1=O (stereo not shown) [Compound 5, homodestcardin] (cyclo([X1]I[NMeI][NMeA][βAla][ξLac(3-iPr)]); configuration not given here)
2. CCC(C)C1NC(=O)C2CCCN2C(=O)C(CC(O)CCl)OC(=O)CCNC(=O)C(C)N(C)C(=O)C(C(C)CC)N(C)C1=O (stereo not shown) [Compound 1, destruxin-A4 chlorohydrin] (cyclo([Pentanoyl(2-O,4-OH,5-Cl)]PI[NMeI][NMeA][βAla]); configuration not given here)
3. CCC(C)C1NC(=O)C2CCCN2C(=O)C(CC(C)C)OC(=O)CCNC(=O)C(C)N(C)C(=O)C(C(C)CC)N(C)C1=O (stereo not shown) [Compound 4, homodestruxin B] (cyclo([ξLac(3-iPr)]PI[NMeI][NMeA][βAla]); configuration not given here)
4. C=CCC1OC(=O)CCNC(=O)C(C)N(C)C(=O)C(C(C)CC)N(C)C(=O)C(C(C)CC)NC(=O)C2C(C)CCN2C1=O (stereo not shown)

Ans:
2.6
1.1
30.2
6.6

###

tested on: MV-4-11 (biphenotypic B myelomonocytic leukemia); assay: MTS cytotoxicity assay (CellTiter 96 AQueous One), compounds, 72 h; assay type: cell-based; details: Homo sapiens, MV4-11, MV-4-11 cells
*1 amine or outer side, *2 acyl side, *3 side chain or, on linkers, in order; H or OH if unused. Where a SMILES comes first, the peptide text is derived from it. [ ]: non-standard residue; d: D form. ξ: configuration not given here. Pentanoyl(2-O,4-OH,5-Cl) = O=C(O)C(O)CC(O)CCl; NMeI = CC[CH](C)[CH](NC)C(=O)O; X1 = CC1CCN([*:1])C1C(=O)[*:2]; ξLac(3-iPr) = CC(C)CC(O)C(=O)O; NMeA = CN[CH](C)C(=O)O; βAla = NCCC(=O)O
OBSERVATION_TYPE: pIC50
One number for each entry, as −log10 of the molar value.

Past entries and their recorded results:
MOLECULE	pIC50
CCC(C)C1NC(=O)C2CCCN2C(=O)C(CC(C)C)OC(=O)CCNC(=O)C(C)N(C)C(=O)C(C(C)CC)N(C)C1=O (stereo not drawn) [Compound 4, homodestruxin B] (cyclo([ξLac(3-iPr)]PI[NMeI][NMeA][βAla]); configuration not given here)	4.84
C=CCC1OC(=O)CCNC(=O)C(C)N(C)C(=O)C(C(C)CC)N(C)C(=O)C(C(C)CC)NC(=O)C2C(C)CCN2C1=O (stereo not drawn)	5.14

# next molecule below
Q: Reported pIC50 for MV-4-11 (biphenotypic B myelomonocytic leukemia), given CCC(C)C1NC(=O)C2C(C)CCN2C(=O)C(CC(O)CCl)OC(=O)CCNC(=O)C(C)N(C)C(=O)C(C(C)CC)N(C)C1=O (stereo not drawn) [Compound 2, trichomide D] (cyclo([X1]I[NMeI][NMeA][βAla][Pentanoyl(2-O,4-OH,5-Cl)]); configuration not given here) ?
Ans: 6.10
